# experiment-summary: GSK_TCAKS: pIC50 HepG2 human cell line viability assay using luminiscence. […] Seeding density was checked to ensure that new mono-layers were not more than 50% confluent at the time of harvesting. Cell suspension was added to 500 mL of the same medium at a final density of 1.2 * 10^5 cells/mL. This cell suspension was dispensed (25 uL, 3000 cells per well) into 384-well clear-bottom plates using a Multidrop Combi dispenser. Prior to addition of the cell suspension, the screening compounds (250 nL) were pre-dispensed into the plates with an Echo liquid handler. Plates were incubated for 48 h at 37C, 5% CO2. After incubation, plates equilibrated at room temperature for 30 min before proceeding to develop the luminescent signal. The signal developer, CellTiter-Glo Reagent, was allowed to equilibrate at room temperature for 30 min and added to the plates (25uL per well) using a Multidrop Combi dispenser. Plates were left for 10 min at room temperature for stabilization and then read using a ViewLux.
# Format: toxicity, cell-based
endpoint: IC50 at 48 h

stdin: Hello, please tell me recorded IC50 at 48 h for this one: CN(Cc1cc2ccccc2s1)c1ncc2c(N)nc(N)nc2n1
stdout: 39.8 µM

stdin: Hello, please tell me recorded IC50 at 48 h for this one: N#Cc1ccc(S(=O)(=O)N2CCN(Cc3cccc(-c4ccncc4)c3)CC2)cc1
stdout: > 100 µM

stdin: Hello, please tell me recorded IC50 at 48 h for this one: COc1ncc(-c2ccc3nccc(-c4ccncc4)c3c2)cc1NS(=O)(=O)C1CC1
stdout: > 100 µM

stdin: Hello, please tell me recorded IC50 at 48 h for this one: COc1cc(C2SCC(=O)Nc3c2c(C)nn3-c2nc3ccccc3s2)cc(OC)c1O (centres undefined)
stdout: > 100 µM
